Listed below: Kd values for each entry.
# Assayed System: T1, Cdc13(DBD) (Saccharomyces cerevisiae, UniProt P32797 497-694)
# T1 sequence: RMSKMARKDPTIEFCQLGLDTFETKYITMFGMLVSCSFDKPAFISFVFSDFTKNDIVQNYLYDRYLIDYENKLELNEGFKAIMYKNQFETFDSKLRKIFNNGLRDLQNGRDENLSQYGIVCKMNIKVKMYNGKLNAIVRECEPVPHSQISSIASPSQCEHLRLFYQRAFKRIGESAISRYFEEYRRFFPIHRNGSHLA
# Assay Details: filter binding
Quantity: Kd (nM)

Binder: GTGTCTGTCTGGGG (ssDNA) [TEL*-GGG]
Quantity: Kd
Output Unit: nM
Recorded Value: 33

Binder: GTGTCTGTCTG (ssDNA) [TEL*]
Quantity: Kd
Output Unit: nM
Recorded Value: 620

Binder: GTGTCTGTCTGAAAAAAAAAA (ssDNA) [TEL*-a10]
Quantity: Kd
Output Unit: nM
Recorded Value: 380

Binder: GTGTGGGTGTG (ssDNA) [TEL]
Quantity: Kd
Output Unit: nM
Recorded Value: 2.8
